- ASSAYED_SYSTEM: Nrf2-Keap1 complex (Homo sapiens, UniProt Q14145)
- Sequence (Q14145 whole entry, one chain of several): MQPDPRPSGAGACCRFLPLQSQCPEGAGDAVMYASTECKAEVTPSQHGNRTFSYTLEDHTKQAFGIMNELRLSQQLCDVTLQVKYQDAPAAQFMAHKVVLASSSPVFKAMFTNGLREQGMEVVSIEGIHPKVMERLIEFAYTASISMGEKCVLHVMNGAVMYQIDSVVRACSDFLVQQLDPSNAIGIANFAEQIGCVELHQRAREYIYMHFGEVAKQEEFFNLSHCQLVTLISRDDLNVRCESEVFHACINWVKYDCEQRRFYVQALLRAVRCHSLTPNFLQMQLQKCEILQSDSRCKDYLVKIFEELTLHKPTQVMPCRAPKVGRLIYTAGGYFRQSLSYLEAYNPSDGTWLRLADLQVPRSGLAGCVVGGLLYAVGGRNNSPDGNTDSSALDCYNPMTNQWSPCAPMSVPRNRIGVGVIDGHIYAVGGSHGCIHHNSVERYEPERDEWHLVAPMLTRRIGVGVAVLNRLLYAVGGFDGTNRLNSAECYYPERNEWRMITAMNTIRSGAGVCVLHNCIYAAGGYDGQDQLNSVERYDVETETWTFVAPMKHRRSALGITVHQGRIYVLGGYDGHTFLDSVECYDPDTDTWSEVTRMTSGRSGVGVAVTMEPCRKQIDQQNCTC
- ASSAY_NAME: cell-based
- Format: cell-based
- RUN_CONDITIONS: 3 h, read-out: Activation 100 nL
MEASUREMENT_KIND: activation at 16 µM (%)
Numbers only here, please. The scale is %.

Example compounds with recorded activation at 16 µM:
C[C@]12C=CC(=O)C=C1CC[C@@H]1[C@@H]2CC[C@]2(C)C(=O)CC[C@@H]12: 81
O=C1C=C2C=C[C@@H]3C[C@@]2(O1)[C@H]1CCCCN31: 84
CSc1nc(NC(C)C)nc(NC(C)C)n1: 67

Please examine the following record next.
Entry CCCOc1ccc2nc(NC(=O)OC)[nH]c2c1 [OXIBENDAZOLE, reference compound] : reported activation at 16 µM = ? 38

* * *

- ASSAYED_SYSTEM: Nrf2-Keap1 complex (Homo sapiens, UniProt Q14145)
- ASSAY_NAME: cell-based
- Type: cell-based
- RUN_CONDITIONS: 3 h, read-out: Activation 200 nL
Where a name gives a salt, the structure may show the parent alone.
Label Met when activation at 32 µM is at or above 50%; otherwise label Not met.

COc1cc2nc(N3CCN(C(=O)c4ccco4)CC3)nc(N)c2cc1OC [PRAZOSINHYDROCHLORIDE, reference compound]: Not met
O=S(=O)(O)CCS [MESNA, reference compound]: Not met
CCOCN(C(=O)CCl)c1c(C)cccc1CC: Met
C=C1C[C@@H]2[C@H](CC[C@]3(C)C(=O)CC[C@@H]23)[C@@]2(C)C=CC(=O)C=C12 [EXEMESTANE, reference compound]: Met
Cc1coc2c1C(=O)C(=O)c1c-2ccc2c1CCCC2(C)C: Met
NCCc1ccc(O)c(O)c1 [3-HYDROXYTYRAMINE]: Met

Record C=C(C)[C@@H]1CC[C@]2(C(=O)O)CC[C@]3(C)[C@H](CC[C@@H]4[C@@]5(C)CC[C@H](O)C(C)(C)[C@@H]5CC[C@]43C)[C@@H]12 ; criterion: activation at 32 µM no lower than 50%. Met? Met

Record CN(C)c1ccc(O)c2c1C[C@H]1C[C@H]3[C@H](N(C)C)C(O)=C(C(N)=O)C(=O)[C@@]3(O)C(O)=C1C2=O [MINOCYCLINEHYDROCHLORIDE, reference compound] ; criterion: activation at 32 µM no lower than 50%. Met? Met

Record Nc1ncnc2c1ncn2[C@H]1C[C@H](O)[C@@H](CO)O1 ; criterion: activation at 32 µM no lower than 50%. Met? Not met

Record CN1CCc2cccc3c2[C@H]1Cc1ccc(O)c(O)c1-3 [APOMORPHINEHYDROCHLORIDE, reference compound] ; criterion: activation at 32 µM no lower than 50%. Met? Not met

Record O=C1CN(/N=C/c2ccc([N+](=O)[O-])o2)C(=O)N1 [NITROFURANTOIN, reference compound] ; criterion: activation at 32 µM no lower than 50%. Met? Not met

Record C=C1CC[C@@H]2[C@](C)(CO)[C@H](O)CC[C@@]2(C)[C@@H]1C/C=C1/C(=O)OC[C@H]1O [ANDROGRAPHOLIDE] ; criterion: activation at 32 µM no lower than 50%. Met? Not met

Record O=C(O)/C=C/c1ccc(O)c(O)c1 [[…]] ; criterion: activation at 32 µM no lower than 50%. Met? Met
